# Measured on: T1, human VPAC2 receptor (human, UniProt P41587 24-438)
# T1 sequence (looked up): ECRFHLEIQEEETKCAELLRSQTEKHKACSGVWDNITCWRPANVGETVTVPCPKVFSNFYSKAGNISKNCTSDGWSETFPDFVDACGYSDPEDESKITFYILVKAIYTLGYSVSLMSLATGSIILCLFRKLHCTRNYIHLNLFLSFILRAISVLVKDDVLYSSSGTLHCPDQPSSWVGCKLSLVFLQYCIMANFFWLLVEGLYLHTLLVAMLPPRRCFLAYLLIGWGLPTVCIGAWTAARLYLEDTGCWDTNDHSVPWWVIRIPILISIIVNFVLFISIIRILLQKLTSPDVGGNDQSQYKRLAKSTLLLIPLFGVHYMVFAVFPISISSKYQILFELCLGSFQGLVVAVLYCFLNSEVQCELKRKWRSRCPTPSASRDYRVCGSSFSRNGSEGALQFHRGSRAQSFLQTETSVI
# Test name: cell-based or functional assay
Where no end group is shown, it is not given here. [ ]: non-standard residue; d: D form. The star is where a group is joined. Hexanoyl = CCCCCC(=O)*; Aib = CC(C)(N)C(=O)O
Consider the following binders and their measured EC50 cAMP, Alpha Screen readings.
Measured parameter: EC50 cAMP, Alpha Screen (nM)

Binder | Unit spec | Value
Hexanoyl-HSDAVFTDNYTRLKAQVAAKKYLQSIKNKRYGGPSSGAPPPS [P141] | nM | 0.72
Hexanoyl-HSDAVFTDNYTRLAKQVAAKKYLQSIKNKRYGGPSSGAPPPS [P173] | nM | 0.25
Hexanoyl-HSDAVFTDNYTRLR[Aib]QAAA[Aib]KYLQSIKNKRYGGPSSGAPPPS (ends and bridges not checked) [P324] | nM | 0.23
Hexanoyl-HSDAVFTDNYTRLRRQVAARRYLQSIRNRRYGGPSSGAPPPS [P98] | nM | 0.15
Hexanoyl-HSDAVFTDNYTRLRKQVAAKKY[Aib]QSIKNKRYGGPSSGAPPPS (ends and bridges not checked) [P236] | nM | 0.12
